Every entry's value here was drawn from PubChem BioAssay (NCI).

# Test system: MALME-3M melanoma
# protocol_notes: NCI tumour cell line growth inhibition, 48 h
Provide the recorded TGI for the entries that follow.

Specify TGI for COc1ccc2nc3cc(Cl)ccc3c(NCCCNCCO)c2c1 and stop. 2.82 µM

Given COc1ccc(Nc2nc3ccccc3n3cccc23)cc1OC , respond with its TGI. 32.9 µM

Check the records and state TGI for CC(=O)OI1NC(=O)c2ccccc21 > 100 µM

Answer with the recorded TGI for the compound listed here: Nc1nc(Nc2ccc(Cl)c(Cl)c2)nc2nc[nH]c12 32.5 µM

Determine from records and report TGI for COc1ccc(/C=c2\c(=O)[nH]c3nc4ccccc4c(=O)n23)cc1 > 100 µM
